# Test Details: Biodistribution studies incl. blocking experiments
# Format: in vivo
# Test Context: healthy BALB/c mice, 30 min p.i.
Reported Property: Biodistribution Blood (% ID/g)
# output: bare number, implied unit % ID/g

| Compound | Quantity Unit | Biodistribution Blood |
| --- | --- | --- |
| O=C(CCP(=O)([O-])CN1CCN(CP(=O)([O-])CCC(=O)NCc2cn(CCOCCOCCO[C@@H]3O[C@H](CO)[C@@H](O)[C@H](O)[C@H]3O)nn2)CCN(CP(=O)([O-])CCC(=O)NCc2cn(CCOCCOCCO[C@@H]3O[C@H](CO)[C@@H](O)[C@H](O)[C@H]3O)nn2)CC1)NCc1cn(CCOCCOCCO[C@@H]2O[C@H](CO)[C@@H](O)[C@H](O)[C@H]2O)nn1.[68Ga+3] [[^68Ga]Ga-TRAP-Gluco, reference compound] | % ID/g | 1.40 |
| O=C(CCP(=O)([O-])CN1CCN(CP(=O)([O-])CCC(=O)NCc2cn(CCOCCOCCO[C@@H]3O[C@H](CO)[C@H](O)[C@H](O)[C@H]3O)nn2)CCN(CP(=O)([O-])CCC(=O)NCc2cn(CCOCCOCCO[C@@H]3O[C@H](CO)[C@H](O)[C@H](O)[C@H]3O)nn2)CC1)NCc1cn(CCOCCOCCO[C@@H]2O[C@H](CO)[C@H](O)[C@H](O)[C@H]2O)nn1.[68Ga+3] [[^68Ga]Ga-TRAP-Galactan] | % ID/g | 1.6 |
| O=C(O)CN1CCN(CC(=O)O)CCN([C@H](CCC(=O)NCCCC(=O)NC(COCc2cn(CCOCCOCCO[C@@H]3O[C@H](CO)[C@H](O)[C@H](O)[C@H]3O)nn2)(COCc2cn(CCOCCOCCO[C@@H]3O[C@H](CO)[C@H](O)[C@H](O)[C@H]3O)nn2)COCc2cn(CCOCCOCCO[C@@H]3O[C@H](CO)[C@H](O)[C@H](O)[C@H]3O)nn2)C(=O)O)CC1 [[^68Ga]Ga-NODAGA-TriGalactan, metal not drawn] | % ID/g | 0.89 |

Now let's try a different one.
Data request, read-out Biodistribution Blood, for O=C(CCP(=O)([O-])CN1CCN(CP(=O)([O-])CCC(=O)NCc2cn([C@@H]3O[C@H](CO)[C@H](O)[C@H](O)[C@H]3O)nn2)CCN(CP(=O)([O-])CCC(=O)NCc2cn([C@@H]3O[C@H](CO)[C@H](O)[C@H](O)[C@H]3O)nn2)CC1)NCc1cn([C@@H]2O[C@H](CO)[C@H](O)[C@H](O)[C@H]2O)nn1.[68Ga+3] [[^68Ga]Ga-Galacto-TRAP]
0.47

----------
# Test Details: Biodistribution studies incl. blocking experiments
# Type: in vivo
# Test Context: healthy BALB/c mice, 60 min p.i.
Threshold 0.2 % ID/g: Biodistribution Pancreas strictly smaller gives rule met, otherwise rule not met.

Some solved entries appear below for comparison.
| Molecule | Answer Label |
| --- | --- |
| O=C(CCP(=O)([O-])CN1CCN(CP(=O)([O-])CCC(=O)NCc2cn(CCOCCOCCO[C@@H]3O[C@H](CO)[C@@H](O)[C@H](O)[C@H]3O)nn2)CCN(CP(=O)([O-])CCC(=O)NCc2cn(CCOCCOCCO[C@@H]3O[C@H](CO)[C@@H](O)[C@H](O)[C@H]3O)nn2)CC1)NCc1cn(CCOCCOCCO[C@@H]2O[C@H](CO)[C@@H](O)[C@H](O)[C@H]2O)nn1.[68Ga+3] [[^68Ga]Ga-TRAP-Gluco, reference compound] | rule met |
| O=C(CCP(=O)([O-])CN1CCN(CP(=O)([O-])CCC(=O)NCc2cn([C@@H]3O[C@H](CO)[C@H](O)[C@H](O)[C@H]3O)nn2)CCN(CP(=O)([O-])CCC(=O)NCc2cn([C@@H]3O[C@H](CO)[C@H](O)[C@H](O)[C@H]3O)nn2)CC1)NCc1cn([C@@H]2O[C@H](CO)[C@H](O)[C@H](O)[C@H]2O)nn1.[68Ga+3] [[^68Ga]Ga-Galacto-TRAP] | rule met |
| O=C(O)CN1CCN(CC(=O)O)CCN([C@H](CCC(=O)NCCCC(=O)NC(COCc2cn(CCOCCOCCO[C@@H]3O[C@H](CO)[C@H](O)[C@H](O)[C@H]3O)nn2)(COCc2cn(CCOCCOCCO[C@@H]3O[C@H](CO)[C@H](O)[C@H](O)[C@H]3O)nn2)COCc2cn(CCOCCOCCO[C@@H]3O[C@H](CO)[C@H](O)[C@H](O)[C@H]3O)nn2)C(=O)O)CC1 [[^68Ga]Ga-NODAGA-TriGalactan, metal not drawn] | rule met |
| CC(=O)N[C@H]1[C@H](OCCOCCOCCn2cc(CNC(=O)CCP(=O)([O-])CN3CCN(CP(=O)([O-])CCC(=O)NCc4cn(CCOCCOCCO[C@@H]5O[C@H](CO)[C@H](O)[C@H](O)[C@H]5NC(C)=O)nn4)CCN(CP(=O)([O-])CCC(=O)NCc4cn(CCOCCOCCO[C@@H]5O[C@H](CO)[C@H](O)[C@H](O)[C@H]5NC(C)=O)nn4)CC3)nn2)O[C@H](CO)[C@H](O)[C@@H]1O.[68Ga+3] [[^68Ga]Ga-TRAP-GalNAc] | rule not met |

Find out if reported Biodistribution Pancreas for O=C(CCP(=O)([O-])CN1CCN(CP(=O)([O-])CCC(=O)NCc2cn(CCOCCOCCO[C@@H]3O[C@H](CO)[C@H](O)[C@H](O)[C@H]3O)nn2)CCN(CP(=O)([O-])CCC(=O)NCc2cn(CCOCCOCCO[C@@H]3O[C@H](CO)[C@H](O)[C@H](O)[C@H]3O)nn2)CC1)NCc1cn(CCOCCOCCO[C@@H]2O[C@H](CO)[C@H](O)[C@H](O)[C@H]2O)nn1.[68Ga+3] [[^68Ga]Ga-TRAP-Galactan] is less than 0.2 % ID/g
rule met
